Test system: Panel CNS (Carcinoma cell lines)
Test: cells
Format: functional
Conditions: Homo sapiens, time 48 hrs
Description: Growth inhibition of human Panel CNS (Carcinoma cell lines) incubated for 48 hrs by sulforhodamine B assay

COMPOUND STRING | TGI
CN1CCN(CCCOc2cccc3nc(Nc4ccc(Cl)c(C(F)(F)F)c4)ccc23)CC1 | 3.67 µM
CN1CCN(CCCOc2cccc3nc(Nc4cc(Cl)cc(Cl)c4)ccc23)CC1 | 3.26 µM
CN1CCN(CCCOc2cccc3nc(Nc4ccc(F)c(F)c4)ccc23)CC1 | 9.09 µM
CN1CCN(CCCOc2cccc3nc(Nc4ccc(Cl)c(F)c4)ccc23)CC1 | 3.35 µM
CN1CCN(CCCOc2cccc3nc(Nc4cccc(Cl)c4)ccc23)CC1 | 4 µM
